B1: NEK8 (parent)
chain: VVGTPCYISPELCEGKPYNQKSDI

# Variants of: B1
# Procedure text: protein stability index of a GFP-peptide fusion (GPS, HEK-293T) (PSI 1-6); higher = more stable;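 note: lentivirally expressed fusions sorted by FACS into six bins by GFP to DsRed ratio, PSI derived from sequencing read proportions per bin multiplied by bin number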
# Study conditions: c terminus: a fixed tail appended

- Seq text: "VVGTPCYIPPELCEGKPYNQKSDI"
  protein stability index: 3.58
- Seq text: "VVGTICYISPELCEGKPYNQKSDI"
  protein stability index: 1.64
- Seq text: "VVGTPCYISPELCEEKPYNQKSDI"
  protein stability index: 2.8
- Seq text: "VVGTPMYISPELCEGKPYNQKSDI"
  protein stability index: 3.56
- Seq text: "VVGTPCYISPELCEFKPYNQKSDI"
  protein stability index: 2.15
- Seq text: "VVGTPCYIIPELCEGKPYNQKSDI"
  protein stability index: 2.32
- Seq text: "VVGTPCYISPELCEGKPYNQKSDM"
  protein stability index: 2.95
- Seq text: "VKGTPCYISPELCEGKPYNQKSDI"
  protein stability index: 3.93
- Seq text: "VVGTPCYISKELCEGKPYNQKSDI"
  protein stability index: 3.56
- Seq text: "VVGTPCYISPELCEGKPYNQKNDI"
  protein stability index: 2.58
- Seq text: "VVGTPCYISPEDCEGKPYNQKSDI"
  protein stability index: 3.4
- Seq text: "VVGTPCYISPELCEGKPYNRKSDI"
  protein stability index: 2.84
- Seq text: "VVGTPCYISPELCEGKNYNQKSDI"
  protein stability index: 3.12
- Seq text: "VVGTPCYISPELCEGKPYNQKSDW"
  protein stability index: 2.63
- Seq text: "VVGTPCYISPELMEGKPYNQKSDI"
  protein stability index: 2.79
- Seq text: "VVGTPCYISPELGEGKPYNQKSDI"
  protein stability index: 3.08
- Seq text: "VVGTPCYISPELCEGKPYNQKSSI"
  protein stability index: 2.17
- Seq text: "VVGDPCYISPELCEGKPYNQKSDI"
  protein stability index: 3.72
- Seq text: "VVGTPCYISPEYCEGKPYNQKSDI"
  protein stability index: 2.27
- Seq text: "VVGTPCYISPELCEGKPYNQKSDY"
  protein stability index: 3.08
- Seq text: "VVGTPCYISPELCRGKPYNQKSDI"
  protein stability index: 2.51
- Seq text: "VVGTPCYISPELQEGKPYNQKSDI"
  protein stability index: 2.79
- Seq text: "VVGTPCYISPELCEMKPYNQKSDI"
  protein stability index: 2.39
- Seq text: "VVGTHCYISPELCEGKPYNQKSDI"
  protein stability index: 3.14
- Seq text: "VVGTPCYISPELKEGKPYNQKSDI"
  protein stability index: 3.38
- Seq text: "VVRTPCYISPELCEGKPYNQKSDI"
  protein stability index: 2.74
- Seq text: "VVGTPCYISPEICEGKPYNQKSDI"
  protein stability index: 2.93
- Seq text: "VVGTPCYISPELCEGKPYNQHSDI"
  protein stability index: 2.86
- Seq text: "PVGTPCYISPELCEGKPYNQKSDI"
  protein stability index: 4.25
- Seq text: "VVGTPCYFSPELCEGKPYNQKSDI"
  protein stability index: 2.9
- Seq text: "VVGTPCYISPELCEQKPYNQKSDI"
  protein stability index: 2.97
- Seq text: "VVGTPCYISPELCTGKPYNQKSDI"
  protein stability index: 2.73
- Seq text: "VVGTPCYISPERCEGKPYNQKSDI"
  protein stability index: 3.35
- Seq text: "VVGTPCYISPEQCEGKPYNQKSDI"
  protein stability index: 2.71
- Seq text: "VVGTPCYISPELCEGKFYNQKSDI"
  protein stability index: 1.99
- Seq text: "VVGTPCYISPELCEGKPYNQPSDI"
  protein stability index: 2.45
- Seq text: "VVGTPCYISPELCEGKPYNQSSDI"
  protein stability index: 3.01
- Seq text: "VVGTPCYISPELCEGKPYNQKSKI"
  protein stability index: 3.02
- Seq text: "VVVTPCYISPELCEGKPYNQKSDI"
  protein stability index: 2.07
- Seq text: "VVGTPCYISPESCEGKPYNQKSDI"
  protein stability index: 3.15
- Seq text: "VVGTPCYISPELCEGKPYNQKSTI"
  protein stability index: 2.63
- Seq text: "VVGTPCYISPELCEGKRYNQKSDI"
  protein stability index: 3.38
- Seq text: "VVGTPCYISPELCEGKPYNQRSDI"
  protein stability index: 2.26
- Seq text: "VVGTPCYISPELCEGKPGNQKSDI"
  protein stability index: 3.45
- Seq text: "VVGTPCYIAPELCEGKPYNQKSDI"
  protein stability index: 2.45
- Seq text: "VVGTPCYISPELCEGKPYNPKSDI"
  protein stability index: 2.31
